Reported Activity values for the following compounds.
- Assay summary: Induction of nitric oxide release in phosphate buffer at pH 7.4 at 0.1 mM after 6 hrs by Griess method in presence of 0.5 mM of N-acetylcysteine
- Type: physicochemical
- Assay setup: pH 7.4, 6 h, 100 µM
Experimental readout: Activity (mol/mol)

INSERT INTO assay_data (query_smiles, experimental_readout, observed_measurement) VALUES
  ('CCn1c(SC/C(=N/O)c2ccccc2)nnc1-c1cc(OC)c(OC)c(OC)c1', 'Activity', 0.14),
  ('C=CCn1c(SC/C(=N/O)c2ccccc2)nnc1-c1cc(OC)c(OC)c(OC)c1', 'Activity', 0.17),
  ('C=CCn1c(SC/C(=N\O)c2ccccc2)nnc1-c1ccccc1', 'Activity', 0.17),
  ('C=CCn1c(SC/C(=N/O)c2ccccc2)nnc1-c1ccc(OC)cc1', 'Activity', 0.14),
  ('O/N=C(/CSc1nnc(-c2ccccc2)n1-c1ccccc1)c1ccccc1', 'Activity', 0.09),
  ('CCn1c(SC/C(=N/O)c2ccccc2)nnc1-c1ccc(OC)c(OC)c1', 'Activity', 0.2),
  ('COc1ccc(-c2nnc(SC/C(=N/O)c3ccccc3)n2-c2ccccc2)cc1', 'Activity', 0.12);

====

- Assay summary: Induction of nitric oxide release in phosphate buffer at pH 7.4 at 0.1 mM after 5 hrs by Griess method in presence of 0.5 mM of N-acetylcysteine
- Format: physicochemical
- Assay setup: pH 7.4, 5 h, 100 µM
Experimental readout: Activity (mol/mol)

INSERT INTO results (query_smiles, value_units, observed_measurement) VALUES
  ('O/N=C(/CSc1nnc(-c2ccccc2)n1-c1ccccc1)c1ccccc1', 'mol/mol', 0.15),
  ('CCn1c(SC/C(=N/O)c2ccccc2)nnc1-c1cc(OC)c(OC)c(OC)c1', 'mol/mol', 0.18),
  ('CCn1c(SC/C(=N/O)c2ccccc2)nnc1-c1ccccc1', 'mol/mol', 0.14),
  ('C=CCn1c(SC/C(=N\O)c2ccccc2)nnc1-c1ccccc1', 'mol/mol', 0.22),
  ('C=CCn1c(SC/C(=N/O)c2ccccc2)nnc1-c1ccc(OC)cc1', 'mol/mol', 0.15),
  ('C=CCn1c(SC/C(=N/O)c2ccccc2)nnc1-c1cc(OC)c(OC)c(OC)c1', 'mol/mol', 0.17),
  ('COc1cc(-c2nnc(SC/C(=N/O)c3ccccc3)n2-c2ccccc2)cc(OC)c1OC', 'mol/mol', 0.16),
  ('CCn1c(SC/C(=N/O)c2ccccc2)nnc1-c1ccc(OC)cc1', 'mol/mol', 0.14),
  ('COc1ccc(-c2nnc(SC/C(=N/O)c3ccccc3)n2-c2ccccc2)cc1', 'mol/mol', 0.15),
  ('COc1ccc(-c2nnc(SC/C(=N/O)c3ccccc3)n2-c2ccccc2)cc1OC', 'mol/mol', 0.23),
  ('CCn1c(SC/C(=N/O)c2ccccc2)nnc1-c1ccc(OC)c(OC)c1', 'mol/mol', 0.25),
  ('C=CCn1c(SC/C(=N\O)c2ccccc2)nnc1-c1ccc(OC)c(OC)c1', 'mol/mol', 0.24);

====

- System: LOX IMVI
- Assay summary: Cytotoxicity against human LOXIMVI cells assessed as cell growth at 10^-5 M after 48 hrs by SRB assay
- Assay type: functional
- Assay setup: read-out: Activity
growth at 10 µM values by entry
Experimental readout: growth at 10 µM (%)

INSERT INTO results (query_smiles, study_system, value_units, observed_measurement) VALUES
  ('COc1cc(-c2nnc(SC/C(=N/O)c3ccccc3)n2-c2ccccc2)cc(OC)c1OC', 'LOX IMVI', '%', 91.7),
  ('COc1ccc(-c2nnc(SC/C(=N/O)c3ccccc3)n2-c2ccccc2)cc1', 'LOX IMVI', '%', 101),
  ('COc1ccc(-c2nnc(SC/C(=N/O)c3ccccc3)n2-c2ccccc2)cc1OC', 'LOX IMVI', '%', 90.3),
  ('CCn1c(SC/C(=N/O)c2ccccc2)nnc1-c1ccc(OC)c(OC)c1', 'LOX IMVI', '%', 93),
  ('C=CCn1c(SC/C(=N\O)c2ccccc2)nnc1-c1ccc(OC)c(OC)c1', 'LOX IMVI', '%', 88.2),
  ('O/N=C(/CSc1nnc(-c2ccccc2)n1-c1ccccc1)c1ccccc1', 'LOX IMVI', '%', 104),
  ('CCn1c(SC/C(=N/O)c2ccccc2)nnc1-c1ccccc1', 'LOX IMVI', '%', 104);
